# PROTOCOL TEXT: Cell Viability - LYMP1-002 - Assay at 24 hr (AID 993)
# TEST PARAMETERS: LYMP1-002 lymphoblastoid cells viability; series mostly up to 92.2 µM
The source made the active and inactive calls. Calls come from the whole dose curve; as a rule, active = well fitted cell-killing curve with a large enough effect; inconclusive = small, poorly fitted or top-dose-only effect; inactive = flat fitted curve, though single readings scatter.
Please reply with one of these outcomes: TRUE (active), FALSE (inactive)

Consider the worked cases shown below.
ClC(Cl)=C(c1ccc(Cl)cc1)c1ccc(Cl)cc1: FALSE
O=C1C(Cl)=C(Cl)C(=O)C(Cl)=C1Cl: TRUE
c1ccc2c(c1)CCCC2: FALSE

What outcome does the record of this test show for Cc1ccccc1N ?
FALSE

Moving on to C=CCc1ccc2c(c1)OCO2
FALSE

Where do the numbers come from? From PubChem BioAssay (NCATS).
